assay comment: in vivo
experimental context: brain
outcome measure: AUC (ng·h/mL)

I. Cc1cn([C@H]2C[C@H](N=[N+]=[N-])[C@@H](COC(=O)c3ccc[n+](C)c3)O2)c(=O)[nH]c1=O.[I-]
II. C[n+]1cccc(C(=O)OC[C@H]2O[C@@H](n3ccc(=O)[nH]c3=O)C[C@@H]2N=[N+]=[N-])c1.[I-]
Asked: Identify the item whose AUC is the smaller number: I or II Kindly state the label of the option you pick.
Given back: I

---

assay comment: Half life in Human serum
Assay type: ADME, organism-based
outcome measure: half-life (h)

{"columns": ["smiles str", "endpoint result"],
 "data": [
  ["Cc1cn([C@H]2C[C@H](N=[N+]=[N-])[C@@H](COC(=O)C3=CN(C)C=CC3)O2)c(=O)[nH]c1=O", 7.7],
  ["C[n+]1cccc(C(=O)OC[C@H]2O[C@@H](n3ccc(=O)[nH]c3=O)C[C@@H]2N=[N+]=[N-])c1.[I-]", 4.95]
]}

I. Cc1cn([C@H]2C[C@H](N=[N+]=[N-])[C@@H](COC(=O)c3ccc[n+](C)c3)O2)c(=O)[nH]c1=O.[I-]
II. CN1C=CCC(C(=O)OC[C@H]2O[C@@H](n3ccc(=O)[nH]c3=O)C[C@@H]2N=[N+]=[N-])=C1
Asked: Lab note: check whether I or II has the lower measured half-life. I would appreciate it if you answered with the label of your choice.
Given back: II
(II: 4.33 h, I: 34.6 h)

---

Species on record: Mus musculus
assay comment: In vitro degradation rate constant in Mouse serum
Format: ADME
outcome measure: Rate constant (h⁻¹)

Please review the following examples before continuing.
{"columns": ["smiles str", "measurement units", "Rate constant"],
 "data": [
  ["Cc1cn([C@H]2C[C@H](N=[N+]=[N-])[C@@H](COC(=O)C3=CN(C)C=CC3)O2)c(=O)[nH]c1=O", "h⁻¹", 0.49],
  ["CN1C=CCC(C(=O)OC[C@H]2O[C@@H](n3ccc(=O)[nH]c3=O)C[C@@H]2N=[N+]=[N-])=C1", "h⁻¹", 1.24]
]}

a. Cc1cn([C@H]2C[C@H](N=[N+]=[N-])[C@@H](COC(=O)c3ccc[n+](C)c3)O2)c(=O)[nH]c1=O.[I-]
b. C[n+]1cccc(C(=O)OC[C@H]2O[C@@H](n3ccc(=O)[nH]c3=O)C[C@@H]2N=[N+]=[N-])c1.[I-]
Asked: For the pair a and b , which entry has the numerically smaller recorded Rate constant? // caller expects the label of the chosen entry
Given back: a
(a: 0.64 h⁻¹, b: 1.36 h⁻¹)

---

Species on record: Homo sapiens
assay comment: In vitro degradation rate constant in Human serum
Type: ADME
outcome measure: Rate constant (h⁻¹)

{"columns": ["smiles str", "measurement units", "Rate constant"],
 "data": [
  ["CN1C=CCC(C(=O)OC[C@H]2O[C@@H](n3ccc(=O)[nH]c3=O)C[C@@H]2N=[N+]=[N-])=C1", "h⁻¹", 0.16]
]}

a. Cc1cn([C@H]2C[C@H](N=[N+]=[N-])[C@@H](COC(=O)C3=CN(C)C=CC3)O2)c(=O)[nH]c1=O
b. C[n+]1cccc(C(=O)OC[C@H]2O[C@@H](n3ccc(=O)[nH]c3=O)C[C@@H]2N=[N+]=[N-])c1.[I-]
c. Cc1cn([C@H]2C[C@H](N=[N+]=[N-])[C@@H](COC(=O)c3ccc[n+](C)c3)O2)c(=O)[nH]c1=O.[I-]
Asked: Sort the 3 compounds by Rate constant; largest first, smallest last. To answer, write out the labels according to the requested order.
Given back: b, a, c
(b: 0.14 h⁻¹, a: 0.09 h⁻¹, c: 0.02 h⁻¹)

From: ChEMBL document CHEMBL1124875
